test.target: P300 (Homo sapiens)
Sequence (Q09472 whole entry): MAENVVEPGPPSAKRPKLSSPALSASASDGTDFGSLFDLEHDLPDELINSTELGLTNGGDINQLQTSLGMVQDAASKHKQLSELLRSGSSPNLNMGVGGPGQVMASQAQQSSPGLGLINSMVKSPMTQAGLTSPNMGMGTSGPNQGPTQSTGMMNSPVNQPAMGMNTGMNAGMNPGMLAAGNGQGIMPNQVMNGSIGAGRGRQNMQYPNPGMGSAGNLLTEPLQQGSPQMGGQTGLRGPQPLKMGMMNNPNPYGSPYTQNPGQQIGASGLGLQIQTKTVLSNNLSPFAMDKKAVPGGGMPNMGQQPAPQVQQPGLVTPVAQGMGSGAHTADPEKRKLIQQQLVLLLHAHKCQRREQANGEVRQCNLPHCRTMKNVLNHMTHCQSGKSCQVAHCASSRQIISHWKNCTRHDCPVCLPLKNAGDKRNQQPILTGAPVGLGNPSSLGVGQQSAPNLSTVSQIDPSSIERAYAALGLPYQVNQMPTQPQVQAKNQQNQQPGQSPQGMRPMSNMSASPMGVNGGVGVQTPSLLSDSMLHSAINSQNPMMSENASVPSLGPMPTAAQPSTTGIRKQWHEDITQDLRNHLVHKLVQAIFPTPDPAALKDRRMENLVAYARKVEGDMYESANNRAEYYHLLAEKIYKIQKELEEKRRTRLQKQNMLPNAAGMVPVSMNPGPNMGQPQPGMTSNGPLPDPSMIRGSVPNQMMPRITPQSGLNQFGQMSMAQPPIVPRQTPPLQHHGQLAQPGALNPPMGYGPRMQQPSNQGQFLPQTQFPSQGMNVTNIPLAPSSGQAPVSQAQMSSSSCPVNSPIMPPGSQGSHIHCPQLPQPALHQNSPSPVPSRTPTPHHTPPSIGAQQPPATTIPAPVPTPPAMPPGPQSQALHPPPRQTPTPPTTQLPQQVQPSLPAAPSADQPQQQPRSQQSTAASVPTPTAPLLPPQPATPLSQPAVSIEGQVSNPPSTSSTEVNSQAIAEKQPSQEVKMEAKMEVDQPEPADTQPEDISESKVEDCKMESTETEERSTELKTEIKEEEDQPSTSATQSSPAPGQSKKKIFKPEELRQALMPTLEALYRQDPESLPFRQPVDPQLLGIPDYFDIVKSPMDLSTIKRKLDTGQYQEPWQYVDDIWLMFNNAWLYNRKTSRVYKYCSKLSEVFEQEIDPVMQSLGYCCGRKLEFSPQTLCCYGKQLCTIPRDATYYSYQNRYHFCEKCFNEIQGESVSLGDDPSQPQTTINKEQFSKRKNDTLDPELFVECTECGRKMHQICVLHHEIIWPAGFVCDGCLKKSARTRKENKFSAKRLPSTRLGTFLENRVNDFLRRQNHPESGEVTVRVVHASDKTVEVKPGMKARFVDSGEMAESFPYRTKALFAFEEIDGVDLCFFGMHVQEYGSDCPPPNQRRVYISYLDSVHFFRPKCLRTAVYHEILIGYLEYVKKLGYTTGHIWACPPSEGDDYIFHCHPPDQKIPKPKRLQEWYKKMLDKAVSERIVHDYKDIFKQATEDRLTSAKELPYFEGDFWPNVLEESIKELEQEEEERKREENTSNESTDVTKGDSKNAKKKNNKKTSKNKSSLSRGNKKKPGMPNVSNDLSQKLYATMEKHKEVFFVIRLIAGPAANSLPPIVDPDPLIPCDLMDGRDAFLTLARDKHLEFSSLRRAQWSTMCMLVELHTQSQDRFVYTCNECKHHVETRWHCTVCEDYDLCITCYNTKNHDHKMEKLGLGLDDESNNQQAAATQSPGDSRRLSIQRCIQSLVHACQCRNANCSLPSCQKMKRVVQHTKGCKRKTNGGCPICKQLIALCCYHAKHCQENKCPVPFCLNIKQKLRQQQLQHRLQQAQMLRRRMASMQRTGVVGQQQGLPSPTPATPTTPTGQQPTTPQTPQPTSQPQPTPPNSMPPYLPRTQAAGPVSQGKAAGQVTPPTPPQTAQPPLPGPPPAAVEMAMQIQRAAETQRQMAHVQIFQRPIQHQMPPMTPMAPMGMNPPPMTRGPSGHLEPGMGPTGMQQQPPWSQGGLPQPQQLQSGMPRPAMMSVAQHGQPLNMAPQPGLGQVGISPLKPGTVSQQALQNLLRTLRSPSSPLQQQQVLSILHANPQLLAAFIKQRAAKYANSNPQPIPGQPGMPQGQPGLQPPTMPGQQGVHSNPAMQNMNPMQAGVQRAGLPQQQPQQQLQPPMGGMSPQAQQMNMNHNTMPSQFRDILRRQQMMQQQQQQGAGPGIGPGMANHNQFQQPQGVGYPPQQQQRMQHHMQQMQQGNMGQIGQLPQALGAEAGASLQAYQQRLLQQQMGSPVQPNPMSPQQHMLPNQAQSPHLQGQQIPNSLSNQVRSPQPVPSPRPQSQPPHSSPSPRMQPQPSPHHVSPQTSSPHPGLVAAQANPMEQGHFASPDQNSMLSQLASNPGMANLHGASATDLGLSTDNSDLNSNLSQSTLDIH
experimental.protocol: Immunoblotting of P300 protein levels in LNCaP or 22RV1 cells
Assay type: cell-based
Design: LNCaP or 22RV1 cells that express CBP/P300 proteins were treated with GNE-781 or the bivalent compounds; endogenous in cells; host or cells: LNCaP (clone FGC) or 22RV1 cells
test.settings: percentage of inhibition of p300 at 10 nM (Table 3); read-out: Degradation (10 nM)
Catalogue of inhibition at 0.01 µM readings, one per entry.

Observe how each entry below is paired with its result.
compound	inhibition at 0.01 µM
CC(=O)N1CCc2c(c(N3CCCc4cc(-c5cnn(C)c5)c(C(F)F)cc43)nn2C2CCN(CCc3ccc(COc4cccc5c4CN(C4CCC(=O)NC4=O)C5=O)cc3)CC2)C1 (centres unmarked)	20 to 50%
CNC(=O)N1CCc2c(c(N3CCCc4cc(-c5cnn(C)c5)c(C(F)F)cc43)nn2C2CCN(C(=O)CCOCCOCCOCCC(=O)N[C@H](C(=O)N3C[C@H](O)C[C@H]3C(=O)NCc3ccc(-c4scnc4C)cc3)C(C)(C)C)CC2)C1	< 20%
CC(=O)N1CCc2c(c(N3CCCc4cc(-c5cnn(C)c5)c(C(F)F)cc43)nn2C2CCN(Cc3ccc(COc4cccc5c4CN(C4CCC(=O)NC4=O)C5=O)cc3)CC2)C1 (centres unmarked)	> 80%
CNC(=O)N1CCc2c(c(N3CCCc4cc(-c5cnn(C)c5)c(C(F)F)cc43)nn2C2CCN(C(=O)COCC(=O)N[C@H](C(=O)N3C[C@H](O)C[C@H]3C(=O)NCc3ccc(-c4scnc4C)cc3)C(C)(C)C)CC2)C1	< 20%

# context switch: different compound, same inhibition at 0.01 µM
Name the recorded inhibition at 0.01 µM of the item CC(=O)N1CCc2c(c(N3CCCc4cc(-c5cnn(C)c5)c(C(F)F)cc43)nn2C2CCN(C(=O)CN3CC(CNc4cccc5c4C(=O)N(C4CCC(=O)NC4=O)C5=O)C3)CC2)C1 (centres unmarked) in your answer.
< 20%
